Test system: 786-0
METHOD: NCI tumour cell line growth inhibition, 48 h
The source made the active and inactive calls. Cut-off read from the data, not from the text of the source: active = GI50 up to about 1.1 µM and inactive = higher.
QUANTITY: GI50

COMPOUND | ASSAY SYSTEM | GI50
CC1=NN(c2cccc(Cl)c2)C2(C1=C/C=C/c1ccccc1)C(Cl)C(=O)N2c1nc2ccccc2s1 (stereo unspecified) | 786-0 | 11.7 µM (inactive)
Cc1ccc(/N=N/c2c(O)ccc3cc(S(=O)(=O)O)ccc23)c(C)c1 | 786-0 | > 100 µM (inactive)
O=C1CCc2cc([N+](=O)[O-])ccc2O1 | 786-0 | > 100 µM (inactive)

Please state recorded GI50 (tested on 786-0) of Cc1nc(=O)[nH]c2[nH][nH]c(=O)c12 > 100 µM (inactive)

Now the compound COc1cccc2c1-c1nc(N)c3c(OC)cccc3c1C2=O 35.9 µM (inactive)

Now the compound Oc1ccc(Cc2cc(Cl)cc(Cl)c2O)cc1Cl 20.3 µM (inactive)

====

Tested on: K562
METHOD: NCI tumour cell line growth inhibition, 48 h
Calls of active or inactive are those of the source. Cut-off read from the data, not from the text of the source: active = GI50 up to about 1.1 µM and inactive = higher.
QUANTITY: GI50

Observe how each entry below is paired with its result.
COMPOUND | GI50
N#Cc1nc(C2CC2)oc1N | > 100 µM (inactive)
COc1ccc(-c2cc(-c3ccco3)c(C#N)c(=O)[nH]2)cc1 | > 100 µM (inactive)
CCCCCCCCCCCCCCC(O)C1CCC(C(O)CCC(O)CCCCCC(O)CC2=CC(C)OC2=O)O1 (stereo unspecified) | 0.0123 µM (active)
O=c1cc(CC(O)(C(F)(F)Cl)C(F)(F)Cl)[nH]n1-c1ccccc1 | 92.3 µM (inactive)
CCCCCCCCCCCCCCCC(=O)OCC1OC(n2ccc(N)nc2=O)C(O)C1O (stereo unspecified) | 8.24 µM (inactive)
CC(C)(C)N/N=C(\Cc1occc(=O)c1O)C(=O)Nc1ccc([N+](=O)[O-])cc1[N+](=O)[O-] | > 100 µM (inactive)

Any idea what GI50 was measured for OCC1=CC(NC2CC(CO)C(O)C(O)C2O)C(O)C(O)C1O (stereo unspecified) ? > 100 µM (inactive)

Now the compound COc1ccc(C2(CC(C)C)CCN(S(=O)(=O)c3ccc(C)cc3)C2)cc1OC (stereo unspecified) 2.88 µM (inactive)

Now the compound N[C@H](C(=O)O)[C@H](Cl)CC(=O)O > 100 µM (inactive)

Now the compound O=C1NC2(CCCC2)C(=O)C12CCCC2 > 100 µM (inactive)

Now the compound COC(=O)/C=C\C1C(C(=O)OC)C2(C(=O)OC)CCC1(C(=O)OC)N2 (stereo unspecified) 12 µM (inactive)

Now the compound Cc1ccc(/N=N/c2c(O)ccc3cc(S(=O)(=O)O)ccc23)c(C)c1 > 100 µM (inactive)

Now the compound O=C(O)CCCCCCC[C@@H]1S[C@H]1CCCCCCO > 100 µM (inactive)

Now the compound COc1ccc(C(=C(I)c2ccccc2)c2ccc(OC)cc2)cc1 > 100 µM (inactive)

Now the compound CCOC(=O)CC1NC(=O)CS1 (stereo unspecified) 80.4 µM (inactive)

Now the compound O=C(Cc1nc2ncccc2[nH]c1=O)c1c[nH]c2ccccc12 21.4 µM (inactive)

Now the compound c1ccc(-c2cccc(-c3ccccn3)n2)nc1 0.345 µM (active)

Now the compound COc1c2cc(C(C)(C)C)cc1Cc1cccc(c1O)Cc1cc(C(C)(C)C)cc(c1OC)Cc1cccc(c1O)Cc1cc(C(C)(C)C)cc(c1OC)Cc1cccc(c1O)C2 > 100 µM (inactive)

Now the compound CCC(C)(C)NC1=C(NC(C)=O)C(=O)c2ccccc2C1=O 20.8 µM (inactive)

Now the compound c1ccc([P+](c2ccccc2)(c2ccccc2)c2ccc([P+](c3ccccc3)(c3ccccc3)c3ccccc3)cc2)cc1 28.4 µM (inactive)

Now the compound CN(C(=O)C1=CCC2(CC1)OCCO2)c1ccccc1OS(=O)(=O)C(F)(F)F > 100 µM (inactive)

Values compiled from ChEMBL document CHEMBL1201862.
